All values here come from patent US11986532B2.

Target under test: BCL6 (Homo sapiens, UniProt P41182)
Construct: endogenous in cells; host or cells: T47D breast cancer epithelial cells
Assay info: Immunofluorescence protocol for high content imaging of BCL6 (degradation) in T47D cells, 3 days compound treatment
Format: cell-based
Condition notes: T47D cells, 3 days compound treatment, read-out: Mean DC50 (nM)* category
Measure name: DC50

What DC50 value was documented for this compound, CNC(=O)COc1cc2c(F)c(Nc3nc(N4CCC(O[C@H]5C[C@H](N6CCC(c7ccc8c(c7F)CN(C7CCC(=O)NC7=O)C8=O)CC6)C5)CC4)ncc3Cl)ccc2n(C(C)C)c1=O (some centres unmarked) ?
< 10 nM

Endpoint output: DC50 of CNC(=O)COc1cc2cc(Nc3nc(N4CCN(C[C@H]5C[C@@H](N6CCC(c7ccc8c(c7)C(=O)N(C7CCC(=O)NC7=O)C8=O)CC6)C5)CC4)ncc3Cl)ccc2n(C(C)C)c1=O (some centres unmarked) . Value?
10 to 50 nM

Using the record for CNC(=O)COc1cc2cc(Nc3nc(N4CCC(OC5CCC6(CC5)CN(c5ccc7c(c5)CN(C5CCC(=O)NC5=O)C7=O)C6)CC4)ncc3Cl)ccc2n(C(C)C)c1=O (centres unmarked) , report its DC50.
< 10 nM

Tell me the measured DC50 of CNC(=O)COc1cc2cc(Nc3nc(N4CCC5(CC4)CN(C(=O)C4CCN(c6cccc7c6CN(C6CCC(=O)NC6=O)C7=O)CC4)C5)ncc3Cl)ccc2n(C(C)C)c1=O (centres unmarked) , please.
< 10 nM

# get_value(readout='DC50', item= CNC(=O)COc1cc2cc(Nc3nc(N4CCC(O[C@H]5C[C@H](N6CCC(c7ccc8c(c7F)CN(C7CCC(=O)NC7=O)C8=O)CC6)C5)CC4)ncc3Cl)ccc2n(C2CCC2)c1=O (some centres unmarked) )
< 10 nM

For CNC(=O)COc1cc2cc(Nc3nc(N4CCC(F)(CN5CCC6(CC5)CN(c5ccc7c(c5)CN(C5CCC(=O)NC5=O)C7=O)C6)CC4)ncc3Cl)ccc2n(C(C)C)c1=O (centres unmarked) , what is its reported DC50?
< 10 nM

May I ask what DC50 has been recorded for CNC(=O)COc1cc2cc(Nc3nc(N4CCC5(CCN(CC6CCN(c7ccc8c(c7)CN(C7CCC(=O)NC7=O)C8=O)CC6)C5)C4)ncc3Cl)ccc2n(C(C)C)c1=O (centres unmarked) ?
< 10 nM

Fill in: DC50 of CNC(=O)COc1cc2cc(Nc3nc(N4CC(C)OC(C)C4)ncc3Cl)ccc2n(CCOc2ccc3c(c2)C(=O)N(C2CCC(=O)NC2=O)C3=O)c1=O (centres unmarked) is ___
50 to 100 nM

====

Target under test: BCL6 (Homo sapiens)
Construct: endogenous in cells; host or cells: T47D breast cancer epithelial cells
Assay info: Immunofluorescence protocol for high content imaging of BCL6 (degradation) in T47D cells, 3 days compound treatment
Format: cell-based
Condition notes: T47D cells, 3 days compound treatment, read-out: Mean DC50 (nM)* category
Give DC50 for every item shown.

Tell me the measured DC50 of CNC(=O)COc1cc2cc(Nc3nc(N4CCN(C[C@H]5C[C@@H](N6CCC(c7cccc8c7C(=O)N(C7CCC(=O)NC7=O)C8=O)CC6)C5)CC4)ncc3Cl)ccc2n(C(C)C)c1=O (stereo partly drawn) , please.
50 to 100 nM

Could you tell me which DC50 is on file for CNC(=O)COc1cc2cc(Nc3nc(N4CCC(OC5CN([C@H]6CC[C@@H](c7ccc8c(c7)CN(C7CCC(=O)NC7=O)C8=O)CC6)C5)CC4)ncc3Cl)ccc2n(C(C)C)c1=O (single isomer, unassigned) ?
< 10 nM

Any idea what its DC50 is? The molecule is CNC(=O)COc1cc2cc(Nc3nc(N4CCC(OC5CCC6(CC5)CN(c5cccc7c5C(=O)N(C5CCC(=O)NC5=O)C7)C6)CC4)ncc3Cl)ccc2n(C(C)C)c1=O (stereo not drawn)
10 to 50 nM
